All figures here come from the supplement of paper PMC10307832.

system: NCI-H1915; test: relative viability (nuclei count vs DMSO), 5 days (fraction); higher = more cells survive; settings: first compound 0.06325 µM
Parameter: relative viability
Quick one: just the number, no unit, thanks!

// query What does the data say about its relative viability? Entry: CCNC(=O)c1noc(-c2cc(C(C)C)c(O)cc2O)c1-c1ccc(CN2CCOCC2)cc1 [Luminespib] + Cc1cc(Nc2cc(N3CCN(C)CC3)nc(Sc3ccc(NC(=O)C4CC4)cc3)n2)n[nH]1 [Tozasertib] (partner 0.1 µM)
// result 0.364

// query Subsequent entry: CCNC(=O)c1noc(-c2cc(C(C)C)c(O)cc2O)c1-c1ccc(CN2CCOCC2)cc1 [Luminespib] + CC(C)C[C@H](NC(=O)[C@H](Cc1ccccc1)NC(=O)c1cnccn1)B(O)O [Bortezomib] (partner 0.002 µM)
// result 0.942

// query Subsequent entry: CCNC(=O)c1noc(-c2cc(C(C)C)c(O)cc2O)c1-c1ccc(CN2CCOCC2)cc1 [Luminespib] + Nc1ncn([C@H]2C[C@H](O)[C@@H](CO)O2)c(=O)n1 [Decitabine] (partner 2 µM)
// result 0.24

// next item, relative viability requested
// query What does the data say about its relative viability? Entry: CCNC(=O)c1noc(-c2cc(C(C)C)c(O)cc2O)c1-c1ccc(CN2CCOCC2)cc1 [Luminespib] + CC(=O)Nc1cccc(-n2c(=O)n(C3CC3)c(=O)c3c(Nc4ccc(I)cc4F)n(C)c(=O)c(C)c32)c1 [Trametinib] (partner 0.02 µM)
// result 0.254

* * *

Items are presented alongside their recorded relative viability.
system: PC-14; experiment: relative viability (nuclei count vs DMSO), 5 days (fraction); higher = more cells survive; settings: first compound 0.002 µM
Quick one: just the number, no unit, thanks!

// query Record lookup: for PC-14, what relative viability belongs to CCNC(=O)c1noc(-c2cc(C(C)C)c(O)cc2O)c1-c1ccc(CN2CCOCC2)cc1 [Luminespib] + O=C(c1cc(Cc2n[nH]c(=O)c3ccccc23)ccc1F)N1CCN(C(=O)C2CC2)CC1 [Olaparib] (partner 8 µM) ?
// result 0.288

// query Subsequent entry: CCNC(=O)c1noc(-c2cc(C(C)C)c(O)cc2O)c1-c1ccc(CN2CCOCC2)cc1 [Luminespib] + CC1(C)CCC(c2ccc(Cl)cc2)=C(CN2CCN(c3ccc(C(=O)NS(=O)(=O)c4ccc(N[C@H](CCN5CCOCC5)CSc5ccccc5)c(S(=O)(=O)C(F)(F)F)c4)cc3)CC2)C1 [Navitoclax] (partner 0.5 µM)
// result 0.996

// query Subsequent entry: CCNC(=O)c1noc(-c2cc(C(C)C)c(O)cc2O)c1-c1ccc(CN2CCOCC2)cc1 [Luminespib] + NC(=O)Nc1cc(-c2cccc(F)c2)sc1C(=O)N[C@H]1CCCNC1 [AZD7762] (partner 0.2 µM)
// result 0.32

// query Subsequent entry: CCNC(=O)c1noc(-c2cc(C(C)C)c(O)cc2O)c1-c1ccc(CN2CCOCC2)cc1 [Luminespib] + Nc1nc2[nH]cc(CCc3ccc(C(=O)N[C@@H](CCC(=O)O)C(=O)O)cc3)c2c(=O)[nH]1 [Pemetrexed] (partner 0.2 µM)
// result 0.148

More entries:
// query Record lookup: for PC-14, what relative viability belongs to CCNC(=O)c1noc(-c2cc(C(C)C)c(O)cc2O)c1-c1ccc(CN2CCOCC2)cc1 [Luminespib] + Cc1nc(Nc2ncc(C(=O)Nc3c(C)cccc3Cl)s2)cc(N2CCN(CCO)CC2)n1 [Dasatinib] (partner 0.075 µM) ?
// result 0.253

// query Subsequent entry: CCNC(=O)c1noc(-c2cc(C(C)C)c(O)cc2O)c1-c1ccc(CN2CCOCC2)cc1 [Luminespib] + C[C@@H](Oc1cc(-c2cnn(C3CCNCC3)c2)cnc1N)c1c(Cl)ccc(F)c1Cl [Crizotinib] (partner 1 µM)
// result 0.973
